The origin of these recorded values is patent US20240058240A1.

Biological target: OR7C1 (Homo sapiens, UniProt O76099)
Construct: transfected with a plasmid containing the CRE-luciferase and a plasmid containing the olfactory receptor; expressed in transfected cells; host or cells: HEK293T-RTP1A1/RTP2 (HEK293T stably expressing the chaperones RTP1A1 and RTP2)
Sequence (O76099 whole entry): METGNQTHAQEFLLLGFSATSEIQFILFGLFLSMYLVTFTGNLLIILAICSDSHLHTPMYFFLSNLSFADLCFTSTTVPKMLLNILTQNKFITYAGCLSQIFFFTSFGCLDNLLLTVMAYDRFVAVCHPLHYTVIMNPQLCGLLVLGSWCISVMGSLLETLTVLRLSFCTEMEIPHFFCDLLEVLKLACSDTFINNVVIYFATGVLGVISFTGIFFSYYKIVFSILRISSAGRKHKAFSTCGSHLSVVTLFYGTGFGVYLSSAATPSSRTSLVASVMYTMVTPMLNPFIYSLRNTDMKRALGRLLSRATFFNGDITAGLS
Assay: Luciferase-based CRE gene reporter assay, dose-response on OR7C1
Type: cell-based
Conditions: negative logarithm of the EC50 in Moles; semi-logarithmic dilutions from 1 mM to 316 nM on OR7C1; read-out: -LogEC50 (average n > 3) (converted)
// NB: equality with 10 µM counts as -1; only EC50 strictly below is 1

compound="CC1(C)CCC[C@]2(C)[C@H]3CCO[C@]3(C)CC[C@@H]12 [Compound 18, Ambroxan or (−)-Ambroxide]" label=-1
compound="CCCC(O)COC1C2(C)CCC(C2)C1(C)C (centres unmarked) [Compound 5]" label=-1
compound="CCC1OC2CC(C)(C)[C@@]34CC[C@@H](C3)C(C)(C)C4C2O1 (stereo in doubt) [Compound 20]" label=-1
compound="C/C1=C/CCC2(C)OC2CC/C(C)=C\\CC1 (centres unmarked) [Compound 44, (E)-woody epoxide]" label=1
compound="CCC(COC)C1=C2C(C)(C)[C@H]3CC[C@@]2(C3)C(C)(C)CC1 (some centres unmarked) [Compound 30, 5-(1-Methoxybutan-2-yl)isolongifol-5-ene]" label=1
compound="CC1(C)C2C(=O)CCC(C)(C)[C@]23CC[C@H]1C3 (some centres unmarked) [Compound 32]" label=-1
compound="C[C@]12CCC(=O)C[C@@H]1CC[C@@H]1[C@@H]2CC[C@]2(C)C=CC[C@@H]12 [Compound 45, 5α-Androst-16-en-3-one]" label=-1

* * *

Molecular target: OR7C1 (Homo sapiens, UniProt O76099)
Construct: transfected with a plasmid containing the CRE-luciferase and a plasmid containing the olfactory receptor; expressed in transfected cells; host or cells: HEK293T-RTP1A1/RTP2 (HEK293T stably expressing the chaperones RTP1A1 and RTP2)
Experiment: Luciferase-based CRE gene reporter assay, dose-response on OR7C1
Format: cell-based
Details: negative logarithm of the EC50 in Moles; semi-logarithmic dilutions from 1 mM to 316 nM on OR7C1; read-out: -LogEC50 (average n > 3) (converted)
EC50 values for the molecules below.
QUANTITY: EC50 (µM)

molecule=CCOCOC1CCCCCCCCCCC1 quantity=EC50 reported_value=50.1
molecule="CC12CCC3C(CCC4C(C)(C)CCCC43C)(CO1)O2 (stereo not drawn)" quantity=EC50 reported_value=2.51
molecule="CC1OC2CC(C)(C)[C@@]34CC[C@@H](C3)C(C)(C)C4C2O1 (stereo in doubt)" quantity=EC50 reported_value=5.01
molecule="CC1O[C@@]12CC[C@H]1C(C)(C)CCC[C@]1(C)[C@H]2C (stereo partly drawn)" quantity=EC50 reported_value=31.6
molecule="CC1O[C@@]12CC[C@H]1C(C)(C)CCC[C@]1(C)C2 (stereo partly drawn)" quantity=EC50 reported_value=20
molecule="C[C@H]1[C@]2(CCC3C(C)(C)CCC[C@@]31C)CO2 (stereo partly drawn)" quantity=EC50 reported_value=501
molecule="CC(=O)C1(C)CCC2=C(C1C)C(C)(C)CCC2 (stereo not drawn)" quantity=EC50 reported_value=25.1
molecule="CCCC(=O)COC1C2(C)CCC(C2)C1(C)C (stereo not drawn)" quantity=EC50 reported_value=50.1
molecule=CC(C)[C@]12C[C@@H]3OC(C)(C)O[C@]3(C)[C@H](C1)C(C)(C)C2 quantity=EC50 reported_value=0.398

* * *

Target: OR7C1 (Homo sapiens, UniProt O76099)
Construct: transfected with a plasmid containing the CRE-luciferase and a plasmid containing the olfactory receptor; expressed in transfected cells; host or cells: HEK293T-RTP1A1/RTP2 (HEK293T stably expressing the chaperones RTP1A1 and RTP2)
Assay: Luciferase-based CRE gene reporter assay, dose-response on OR7C1
Type: cell-based
Settings: negative logarithm of the EC50 in Moles; semi-logarithmic dilutions from 1 mM to 316 nM on OR7C1; read-out: -LogEC50 (average n > 3) (converted)
// NB: equality with 20 µM counts as Criterion not met; only EC50 strictly below is Criterion met

compound="CC(=O)C1(C)CC2=C(CCCC2(C)C)CC1C (stereo not drawn) [Compound 34, Sylvamber]" label="Criterion not met"
compound="CCC12CCC3C(C)(C)CCCC3(C)C1COC2 (stereo not drawn) [Compound 3, Grisalva]" label="Criterion not met"
compound="CC(=O)OCC1CCC(C)(C)C23CC4C[C@H]2C13C4(C)C (stereo partly drawn) [Compound 19, Amboryl acetate]" label="Criterion not met"
compound="CC(CO)C1CCC(C)(C)[C@@]23CC[C@@H](C2)C(C)(C)C13 (stereo partly drawn) [Compound 39, 5-(1-Hydroxypropan-2-yl)isolongifolane]" label="Criterion met"
compound="CC(C)[C@H]1OCC[C@]2(CC3CC[C@]2(C)C3(C)C)O1 [Compound 9, Belambre]" label="Criterion met"
compound="CC1(C)CCC[C@]2(C)C[C@]3(CCC12)CO3 (stereo in doubt) [Compound 38]" label="Criterion not met"
compound="CCC(CO)C1=C2C(C)(C)[C@H]3CC[C@@]2(C3)C(C)(C)CC1 (stereo partly drawn) [Compound 27, 5-(1-Hydroxybutan-2-yl)isolongifol-5-ene]" label="Criterion met"
compound="CCC(O)COC1C2(C)CCC(C2)C1(C)C (stereo not drawn) [Compound 7]" label="Criterion not met"
compound="CC(O)C(C)C1=C2C(C)(C)[C@H]3CC[C@@]2(C3)C(C)(C)CC1 (stereo partly drawn) [Compound 22, 5-(3-Hydroxybutan-2-yl)isolongifol-5-ene]" label="Criterion met"
compound="CCC(O)COC1CCCCC1C(C)(C)C (stereo not drawn) [Compound 2, Ambercore]" label="Criterion met"
compound="COC[C@@H](C)C1=C2C(C)(C)[C@H]3CC[C@@]2(C3)C(C)(C)CC1 (stereo in doubt) [Compound 26]" label="Criterion met"
compound="CC1(C)/C(=C\\CO)C2CCC1C2 (racemic) [Compound 8, DL-Patchenol]" label="Criterion not met"
compound="CC1(C)C/C=C\\CC/C=C\\CCC2OC21C (stereo not drawn) [Compound 43, Cedroxyde]" label="Criterion met"
compound="CC(C=O)C1=C2C(C)(C)[C@H]3CC[C@@]2(C3)C(C)(C)CC1 (stereo partly drawn) [Compound 21, 5-(1-Oxopropan-2-yl)isolongifol-5-ene]" label="Criterion met"

* * *

Target: OR7C1 (Homo sapiens, UniProt O76099)
Construct: transfected with a plasmid containing the CRE-luciferase and a plasmid containing the olfactory receptor; expressed in transfected cells; host or cells: HEK293T-RTP1A1/RTP2 (HEK293T stably expressing the chaperones RTP1A1 and RTP2)
Assay: Luciferase-based CRE gene reporter assay, dose-response on OR7C1
Format: cell-based
Conditions: negative logarithm of the EC50 in Moles; semi-logarithmic dilutions from 1 mM to 316 nM on OR7C1; read-out: -LogEC50 (average n > 3) (converted)
EC50 values for the molecules below.
QUANTITY: EC50 (µM)

molecule="CCC(COC)C1=CCC(C)(C)[C@@]23CC[C@@H](C2)C(C)(C)C13 (some centres unmarked)" quantity=EC50 reported_value=3.98
molecule="C[C@@]12C=CCC1C1CC=C3C[C@@H](O)CC[C@]3(C)C1CC2 (some centres unmarked)" quantity=EC50 reported_value=12.6
molecule="CC1CCC2C(C2(C)C)C12COC(C)(C)OC2 (centres unmarked)" quantity=EC50 reported_value=12.6
molecule="CC1OCC(C)C2(CC3CCC2(C)C3(C)C)O1 (centres unmarked)" quantity=EC50 reported_value=2
molecule="CCC(O)COC1C(C)CCCC1(C)C (mixture of isomers)" quantity=EC50 reported_value=126
molecule="CCCC(O)COC1C(C)CCCC1(C)C (mixture of isomers)" quantity=EC50 reported_value=126
molecule="CCCC(O)CCC1C(C)CCCC1(C)C (centres unmarked)" quantity=EC50 reported_value=3.98
molecule="CC1OC[C@H](C)C2(CC3CCC2(C)C3(C)C)O1 (some centres unmarked)" quantity=EC50 reported_value=2.51
